Data origin: PubChem BioAssay

Assay: probe aShh binding to arrayed compounds – biochemical, biotinylated probe, 635/667 nm fluorescence, primary screen (AID 1114);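 further: probe is biotin-labelled aShh protein from a stem cell growth factor screen; measures binding of labelled protein to compounds printed on the slide; score merges feature fluorescence at 667 nm with signal-to-noise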
Conditions: small-molecule microarray, higher = more signal
Measured Metric: composite z-score

Query Smiles	Test Value
O=[N+]([O-])c1ccc(C[n+]2ccc(-c3ccc(CO)cc3)cc2)o1	0.172
COCCCNC(=O)[C@]1(Cc2ccccc2CN=[N+]=[N-])N=C(c2ccc(OCCCO)cc2)O[C@@H]1c1ccccc1CN=[N+]=[N-]	0.417
COC(=O)C(CC#Cc1ccc2c(c1)[C@]1(C(=O)N2)[C@H](c2ccc(O)cc2)N2[C@H](c3ccccc3)[C@H](c3ccccc3)OC(=O)[C@H]2[C@@H]1C(N)=O)C(=O)OC	-0.352
O=C1N(CCS(=O)(=O)c2ccccc2)c2ccccc2[C@H]2OC(c3ccc(OCCCO)cc3)=N[C@@]12CCS(=O)(=O)c1ccccc1	0.359

----------
Experiment: budding yeast growth changes without added modifier – OD600, strain BY4716, 24 h, basal condition, primary screen (AID 1173)
Details: S. cerevisiae BY4716 growth, OD600, 24 h; higher = more signal, called active from +8 up or from −8 down

Query Smiles	z-score
CCOC(=O)C1=CC[C@@H](c2cccc(Br)c2)N(S(=O)(=O)c2ccc(C)cc2)[C@H]1c1ccc([N+](=O)[O-])cc1	0.25
C=C(COC)C(=O)CC[C@H](OC(=O)c1ccccc1-c1ccccc1C(=O)O)c1ccc(CO)o1	0.624
C=CCNC(=O)[C@H]1[C@@H]2C(=O)O[C@@H](c3ccccc3)[C@@H](c3ccccc3)N2[C@@H](c2ccc(O)cc2)[C@]12C(=O)N(C(=O)OCCOC)c1ccc(C#CC3(O)CCCCCC3)cc12	-0.897
COCCCNC(=O)[C@@]1(C)c2ccccc2C(=O)N(c2ccc(C)cn2)[C@H]1c1ccc(CO)cc1	-0.156
O=C(N1CCOCC1)[C@@]1(CCS(=O)(=O)c2ccccc2)COC(c2ccc(OCCCO)cc2)=N1	0.0036
COCCOC(=O)N1C(=O)[C@@]2(c3cc(C#Cc4ccc(OC)cc4)ccc31)[C@H](C(=O)N1CCc3cc(OC)c(OC)cc3C1)[C@H]1C(=O)O[C@H](c3ccccc3)[C@H](c3ccccc3)N1[C@@H]2c1ccc(O)cc1	1.12

----------
Target: NADPH oxidase 5 (Homo sapiens)
Assay: compounds shifting NOX5 Amplex Red fluorescence – cell-based, HEK293-NOX5, NOX inhibitor project, primary screen (AID 1161)
Conditions: HEK293-NOX5, ionomycin, 45 min, higher = more signal
Binning of z-score into classes: 0 (below -0.4), 1 (-0.4 to below 1), 2 (1 or more)

Compound	Assigned Label
CN(C)C(=O)[C@@]1(Cc2ccccc2N=[N+]=[N-])N=C(c2ccc(OCCCO)cc2)O[C@H]1c1ccccc1N=[N+]=[N-]	0
C[C@]12C(=O)N(CCCO)[C@@H]3C(=O)N(c4ccc(Cl)cc4)CC=CC31O[C@@H]1/C=C\CCCOC(=O)C12 (some centres undefined)	2
COc1cc(C(O)C2C=CC3C(=O)N(C)C(=O)C3N2NC(=O)OC(C)(C)C)cc(OC)c1OC (centres undefined)	0
CC[C@@H]1[C@@H]2C3C(=O)N(CC)C(=O)C3CC(=O)[C@@H]2[C@H](c2ccc(C)cc2)N1S(=O)(=O)c1ccc(C)cc1 (some centres undefined)	2
COc1ccc(C(=O)Nc2ccc(CN3C(=O)[C@]4(O[C@H](CCn5cc([C@H](O)c6ccccc6)nn5)[C@@H]([Si](C)(C)c5ccc(OC)cc5)[C@@H]4C)c4ccccc43)cc2)cc1	2
COc1ccc([Si](C)(C)[C@@H]2[C@@H](CCO)O[C@]3(C(=O)N(Cc4ccccc4)c4ccc(N5C(=O)COc6ccccc65)cc43)[C@H]2C)cc1	2
CCCCC(CC)C(O)C1C=CC2C(=O)NC(=O)C2N1Nc1ccccn1 (centres undefined)	0
C=CCN1C(=O)[C@@]2(O[C@@H](CCn3cc([C@H](O)c4ccccc4)nn3)[C@H]([Si](C)(C)c3ccc(OC)cc3)[C@H]2C)c2cc(NC(=O)c3ccc(OC)cc3)ccc21	1
Cc1ccc(N2C(=O)c3ccccc3[C@](C)(C(=O)NC(C)C)[C@@H]2c2ccc(CO)cc2)nc1	1
COCCCNC(=O)[C@@H]1c2ccccc2C(=O)N(c2ccc(C)cn2)[C@H]1c1ccc(CO)cc1	1
COc1ccc(C#Cc2ccc3c(c2)[C@]2(C(=O)N3)[C@H](C(=O)O)[C@H]3C(=O)O[C@H](c4ccccc4)[C@H](c4ccccc4)N3[C@@H]2c2ccc(OCCO)cc2)cc1	2
C=C(C)[C@@H]1CC=C(C(O)C2C=CC3C(=O)N(C4CCCCC4)C(=O)C3N2Nc2ccc(OC)cc2)CC1 (some centres undefined)	0
O=C1OCCC=C[C@H]2OC34C=CCN(Cn5nnc6ccccc65)C(=O)[C@H]3N(CCCCCO)C(=O)[C@@H]4C12 (some centres undefined)	2
